- System: ATP;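 further: ATP exposure 15 min at 22 °C before imaging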
- Assay Method Text: switch fluorescence ratio, 500 uM ATP over buffer (Cy3 cluster intensity, sum of 5 cycles each) (fold (ratio)); higher = stronger signal-on switching upon ATP binding; sequences stand for … in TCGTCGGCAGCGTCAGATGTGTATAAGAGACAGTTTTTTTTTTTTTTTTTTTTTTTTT…TC
- Run Conditions: aptamer strand: ATP DNA aptamer (quencher-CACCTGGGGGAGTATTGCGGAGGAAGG + anchor), 100 nM annealed; ATP concentration: 500 uM
The entries below come with measured switch fluorescence ratio values attached.
Just the number.

GTACGGTTTT    0.994

Give the reported switch fluorescence ratio for this sequence. GCAATGGTAC
2.21

Given ACATGGGCT , respond with its switch fluorescence ratio.
1

Answer with reported switch fluorescence ratio of TCTTGGTAAT
0.996
